Every entry's value here was drawn from a melting point compilation (Tetko et al.; mined from patent text by program, amines drawn as free bases though some values may be those of a salt).

melting point overview

# count of solved cases: 3
{"columns": ["compound", "melting point"],
 "data": [
  ["CCn1ncc2c(O)c(CCc3ccccc3)c(C(=O)O)nc21", "250 to 251 °C"],
  ["CCS(=O)(=O)CCNc1c(S(C)=O)c(C#N)nn1-c1c(Cl)cc(C(F)(F)F)cc1Cl (stereo not given)", "131 to 132 °C"],
  ["CC1C(C)(C)C2CCc3cnoc3C2C1(C)C (stereo not given)", "82.3 °C"]
]}

Given the compound `COC(=O)C1(NS(=O)(=O)c2ccc3c(Cl)cnc(Cl)c3c2)CCOCC1` , what is its reported melting point?
168 to 170 °C

Returns the measured melting point for the input compound. Input: `Cc1ncc2cc(-c3c(Cl)cccc3Cl)c(N=CN(C)C)nc2n1`
236 to 238 °C

Quick one: melting point for `Cn1nnnc1C=C(c1ccccc1)c1ccccc1` ?
147 to 148 °C

Reported melting point for `COc1ccc(-n2nc(C)cc2NC2=NCCN2C(C)=O)cc1` : what is it?
129 to 131 °C
